Origin of measurements: PubChem BioAssay AID1963833

Tested on: 883617-216-R-J1-PDC complex spheroid viability;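 also: spheroids exposed to compounds for seven days before readout; 100% = DMSO vehicle control viability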
Experiment: Anticancer human tumor 883617-216-R-J1-PDC patient-derived bladder carcinoma cell line growth inhibition [POLQ]
Details: second compound 0.0316 µM; first compound 10 µM; active compounds read low
property: viability, T/C

Q: Consider the molecule C=CC(=O)N1CCN(c2nc(=O)n(-c3c(C)ccnc3C(C)C)c3nc(-c4c(O)cccc4F)c(F)cc23)C(C)C1 (stereo not given) + COC1C(OC(N)=O)C(O)C(Oc2ccc3c(O)c(NC(=O)c4ccc(O)c(CC=C(C)C)c4)c(=O)oc3c2C)OC1(C)C and give its measured viability, T/C.
Ans: 87.6%

Q: What value of measured viability, T/C is listed for CC1COCCN1c1cc(C2(S(C)(=N)=O)CC2)nc(-c2ccnc3[nH]ccc23)n1 (stereo not given) + Nc1ccc(C#CCN(C(=O)Cc2ncc(C(F)(F)F)cc2C(F)(F)F)c2ccc(F)cc2)nn1 ?
Ans: 42.5%

Q: For the molecule shown here, CC1COCCN1c1cc(C2(S(C)(=N)=O)CC2)nc(-c2ccnc3[nH]ccc23)n1 (stereo not given) + Cc1cccc(N(C)C(=O)C2C(O)CCN2c2nc(C)cc(C(F)(F)F)c2C#N)c1 , give the reported viability, T/C.
Ans: 30.8%

Q: viability, T/C for CCCS(=O)(=O)Nc1ccc(F)c(C(=O)c2c[nH]c3ncc(-c4ccc(Cl)cc4)cc23)c1F + Nc1ccc(C#CCN(C(=O)Cc2ncc(C(F)(F)F)cc2C(F)(F)F)c2ccc(F)cc2)nn1 ?
Ans: 47.2%

Q: Query (molecule): COc1cc(C2c3cc4c(cc3C(OC3OC5COC(C)OC5C(O)C3O)C3COC(=O)C23)OCO4)cc(OC)c1O (stereo not given) + Cc1cccc(N(C)C(=O)C2C(O)CCN2c2nc(C)cc(C(F)(F)F)c2C#N)c1 ; field requested: viability, T/C
Ans: 54.8%

Q: Can you share its viability, T/C? I mean this molecule: CCc1cc2c(N3CCc4c(cc(Cn5ccnc5)cc4-c4cn(C)nc4C(F)(F)F)C3=O)cc(C)nc2c(OC)n1 + Cc1cccc(N(C)C(=O)C2C(O)CCN2c2nc(C)cc(C(F)(F)F)c2C#N)c1
Ans: 41.8%

Q: // viability, T/C lookup, key: C#Cc1c(F)ccc2cc(O)cc(-c3ncc4c(N5CC6CCC(C5)N6)nc(OCC56CCCN5CC(F)C6)nc4c3F)c12 (stereo not given) + Cc1cccc(N(C)C(=O)C2C(O)CCN2c2nc(C)cc(C(F)(F)F)c2C#N)c1
Ans: 70.1%

Q: Recorded viability, T/C of Nc1ccn(C2OC(CO)C(O)C2(F)F)c(=O)n1 (stereo not given) + Nc1ccc(C#CCN(C(=O)Cc2ncc(C(F)(F)F)cc2C(F)(F)F)c2ccc(F)cc2)nn1 , please.
Ans: 37.3%

Q: // returns reported viability, T/C for input CC1COCCN1c1cc(C2(O)CC3CCC(C2)O3)c2cnn(-c3ccn[nH]3)c2n1 (stereo not given) + COC1C(OC(N)=O)C(O)C(Oc2ccc3c(O)c(NC(=O)c4ccc(O)c(CC=C(C)C)c4)c(=O)oc3c2C)OC1(C)C
Ans: 21.8%

Q: Reported viability, T/C, molecule COc1cccc2c1C(=O)c1c(O)c3c(c(O)c1C2=O)CC(O)(C(=O)CO)CC3OC1CC(N)C(O)C(C)O1 (stereo not given) + Nc1ccc(C#CCN(C(=O)Cc2ncc(C(F)(F)F)cc2C(F)(F)F)c2ccc(F)cc2)nn1 : ____
Ans: 0.18%
